All values here come from patent US4581354A.

- Test system: acetylcholine-induced abdominal constriction
- Procedure Summary: animal or person
- Assay type: in vivo, mice
- Experimental Context: Mus musculus, po, 550 mg./kg. oral; read-out: Ach percent inhibition
// reported inhibition in vivo at 550 mg/kg per item
Kindly answer with a numeric value in %, unit omitted.

These solved cases illustrate the format of a correct answer.
molecule="Cc1ccc(C(=O)c2cn(C(C)CN3CCOCC3)c3ccccc23)cc1 (centres unmarked) [Example 2A]" system_under_test="acetylcholine-induced abdominal constriction" endpoint_result=73
molecule="Cc1c(C(=O)c2ccc3ccccc3c2)c2ccccc2n1CCN1CCOCC1 [Example 1W]" system_under_test="acetylcholine-induced abdominal constriction" endpoint_result=47
molecule="COc1ccc2c(c1)c(C(=O)c1ccccc1)cn2CCN1CCOCC1 [Example 1AK]" system_under_test="acetylcholine-induced abdominal constriction" endpoint_result=47
molecule="Cc1ccc(C(=O)c2c(C)n(C(C)CN3CCOCC3)c3ccccc23)cc1 (centres unmarked) [Example 2B]" system_under_test="acetylcholine-induced abdominal constriction" endpoint_result=33

# next molecule below
stdin: // inhibition in vivo at 550 mg/kg lookup, key: CCOc1ccc(C(=O)c2c(C)n(CCN3CCOCC3)c3ccccc23)cc1 [Example 1BH]
stdout: 58
